Task for the reader: assign each of the following molecules its reported melting point.
Give bare numbers, in °C.

Some solved entries appear below for comparison.
# MOLECULE, MEASURED ENDPOINT, QUANTITATIVE RESULT
records = [
    ("C[C@H]1CN(c2ccc(Cl)cc2)C(=O)c2c(C(=O)Nc3cnccn3)cnn21 [compound 162]", "melting point", 250.1),
    ("C[C@H]1CN(c2ccc(C(F)(F)F)cc2)C(=O)c2c(C(=O)NC3CCC3)cnn21 [compound 71]", "melting point", 208.2),
    ("CC(=O)NC(=O)c1cnn2c1C(=O)N(c1ccc(C(F)(F)F)cc1)C[C@@H]2C [compound 138]", "melting point", 212.65),
    ("Cc1c(F)cncc1NC(=O)c1cnn2c1C(=O)N(c1ccc(Cl)cc1)C[C@@H]2C [compound 129]", "melting point", 189.99),
    ("Cc1cc(N2C[C@H](C)n3ncc(C(=O)Nc4cnccn4)c3C2=O)ccc1Cl [compound 161]", "melting point", 233.4),
    ("C[C@H]1CN(c2ccc(C(F)(F)F)c(Cl)c2)C(=O)c2c(C(=O)Nc3cccnc3)cnn21 [compound 47]", "melting point", 140.43),
    ("Cc1cc(N2C[C@H](C)n3ncc(C(=O)Nc4cncc(F)c4C)c3C2=O)ccc1Cl [compound 79]", "melting point", 182),
    ("C[C@H]1CN(c2ccc(C(F)(F)F)cc2)C(=O)c2c(C(=O)Nc3cncc(F)n3)cnn21 [compound 145]", "melting point", 209.5),
    ("Cc1cc(NC(=O)c2cnn3c2C(=O)N(c2ccccc2)C[C@@H]3C)ccn1 [compound 97]", "melting point", 94.5),
    ("Cc1cc(NC(=O)c2cnn3c2C(=O)N(c2ccc(Cl)c(OC(F)F)c2)C[C@@H]3C)ccn1 [compound 84]", "melting point", 196.7),
]

Would you mind giving melting point for every molecule in the list below?
1. C[C@H]1CN(c2ccc(C(F)(F)F)cc2)C(=O)c2c(C(=O)Nc3cnccn3)cnn21 [compound 100]
2. C[C@H]1CN(c2ccc(C(F)(F)F)c(F)c2)C(=O)c2c(C(=O)Nc3ccc(F)cn3)cnn21 [compound 78]
3. Cc1cncc(NC(=O)c2cnn3c2C(=O)N(c2ccc(C(F)(F)F)c(Cl)c2)C[C@@H]3C)c1C [compound 126]
4. C[C@H]1CN(c2ccc(Cl)c(Cl)c2)C(=O)c2c(C(=O)Nc3cnccn3)cnn21 [compound 116]
5. C[C@H]1CN(c2ccc(Cl)cc2)C(=O)c2c(C(=O)Nc3cccnc3)cnn21 [compound 41]

1. 225
2. 183.36
3. 229.17
4. 213.63
5. 180

Would you mind giving melting point for every molecule in the list below?
1. CC(NC(=O)c1cnn2c1C(=O)N(c1ccc(C(F)(F)F)cc1)C[C@@H]2C)C1CC1 (single isomer, unassigned) [compound 61]
2. C[C@H]1CN(c2ccc(C(F)(F)F)cc2)C(=O)c2c(C(=O)Nc3ccncc3F)cnn21 [compound 4]
3. C[C@H]1CN(c2ccc(C(F)(F)F)cc2)C(=O)c2c(C(=O)Nc3ncco3)cnn21 [compound 139]
4. C[C@H]1CN(c2ccc(C(F)(F)F)cc2)C(=O)c2c(C(=O)Nc3ccnc(CF)c3)cnn21 [compound 151]
5. C[C@H]1CN(c2ccc(C(F)(F)F)cc2)C(=O)c2c(C(=O)NCC3CCCO3)cnn21 (some centres unmarked) [compound 62]

1. 186.7
2. 189
3. 204.9
4. 152.64
5. 231.4

Would you mind giving melting point for every molecule in the list below?
1. C[C@H]1CN(c2ccc(C(F)(F)F)cc2)C(=O)c2c(C(=O)Nc3ccccn3)cnn21 [compound 9]
2. Cc1ccncc1NC(=O)c1cnn2c1C(=O)N(c1ccc(C(F)(F)F)cc1)C[C@@H]2C [compound 14]
3. C[C@H]1CN(c2ccc(C(F)(F)F)c(Cl)c2)C(=O)c2c(C(=O)Nc3ccc(F)cn3)cnn21 [compound 108]
4. C[C@H]1CN(c2ccc(C(F)(F)F)cc2)C(=O)c2c(C(=O)Nc3ccc(S(C)(=O)=O)cc3)cnn21 [compound 6]

1. 246.7
2. 249.5
3. 212.88
4. 198.2

Would you mind giving melting point for every molecule in the list below?
1. C[C@H]1CN(c2ccc(C(F)(F)F)cc2)C(=O)c2c(C(=O)Nc3nccs3)cnn21 [compound 140]
2. C[C@H]1CN(c2ccc(C(F)(F)F)c(F)c2)C(=O)c2c(C(=O)Nc3cncc(F)c3)cnn21 [compound 24]

1. 246.7
2. 204

Would you mind giving melting point for every molecule in the list below?
1. Cc1cc(NC(=O)c2cnn3c2C(=O)N(c2ccc(C(F)(F)F)c(C)c2)C[C@@H]3C)cc(C)n1 [compound 111]
2. C[C@H]1CN(c2ccc(C(F)(F)F)c(F)c2)C(=O)c2c(C(=O)Nc3cnccn3)cnn21 [compound 113]
3. C[C@H]1CN(c2ccc(C(F)(F)F)cc2)C(=O)c2c(C(=O)NCC3CCC3)cnn21 [compound 58]
4. COCc1cc(N2C[C@H](C)n3ncc(C(=O)Nc4ccccn4)c3C2=O)ccc1C(F)(F)F [compound 31]
5. Cc1c(F)cncc1NC(=O)c1cnn2c1C(=O)N(c1ccc(C(F)(F)F)cc1)C[C@@H]2C [compound 124]
6. C[C@H]1CN(c2ccc(C(F)(F)F)c(Cl)c2)C(=O)c2c(C(=O)Nc3ccccn3)cnn21 [compound 46]

1. 161.92
2. 181.5
3. 204.6
4. 160.4
5. 194.5
6. 223

---

EXPERIMENTAL TARGET: UniProt:Q14416
METHOD SUMMARY: [35S]GTPγS binding assay, mGluR2 negative allosteric modulation (membranes from CHO cells transfected with human mGlu2 receptor, glutamate ~EC80 60 μM)
MEASUREMENT SETUP: membranes with human mGlu2 receptor, glutamate ~EC80 (60 μM); pIC50 = -log IC50 (M)
MEASURED ENDPOINT: GTPγS - hmGluR2 anGT pIC50
Give bare numbers.

Some solved entries appear below for comparison.
# MOLECULE, GTPγS - hmGluR2 anGT pIC50
measured = [
    ("COc1ccc(NC(=O)c2cnn3c2C(=O)N(c2ccc(C(F)(F)F)cc2)C[C@@H]3C)nc1 [compound 102]", 7.67),
    ("COc1cccc(NC(=O)c2cnn3c2C(=O)N(c2ccc(C(F)(F)F)cc2)C[C@@H]3C)n1 [compound 105]", 8.21),
    ("COCC1CN(c2ccc(C(F)(F)F)cc2)C(=O)c2c(C(=O)Nc3cccnc3)cnn21 (racemic) [compound 165]", 8.03),
]

Would you mind giving GTPγS - hmGluR2 anGT pIC50 for every molecule in the list below?
1. Cc1cccc(NC(=O)c2cnn3c2C(=O)N(c2ccc(C(F)(F)F)cc2)C[C@@H]3C)n1 [compound 17]
2. Cc1cc(N2C[C@H](C)n3ncc(C(=O)Nc4ccc(F)cn4)c3C2=O)ccc1C(F)(F)F [compound 110]
3. Cc1cc(NC(=O)c2cnn3c2C(=O)N(c2ccc(Cl)c(Cl)c2)C[C@@H]3C)cc(C)n1 [compound 118]
4. C[C@H]1CN(c2ccc(C(F)(F)F)c(CF)c2)C(=O)c2c(C(=O)Nc3cccnc3)cnn21 [compound 53]

[7.39, 8.3, 8.8, 8.61]

---

Tested on: rats
METHOD SUMMARY: Reversal of the effect of the mGluR2 PAM JNJ-42153605-induced inhibition of scopolamine-induced hyperlocomotion
Assay type: in vivo, rat
MEASUREMENT SETUP: Rattus norvegicus; rats, route PO, criterion total distance >1500 cm; read-out: ED50 SCOP JNJ-42153605 (Reversal of the effect of JNJ 42153605 on scopolamine-induced hyperlocomotion)
Task for the reader: assign each of the following compounds its reported ED50.
Answers are plain numbers, in mg/kg.

Would you mind giving ED50 for every compound in the list below?
1. COc1cncc(NC(=O)c2cnn3c2C(=O)N(c2ccc(C(F)(F)F)cc2)C[C@@H]3C)c1
2. C[C@H]1CN(c2ccc(C(F)(F)F)c(Cl)c2)C(=O)c2c(C(=O)Nc3cnccn3)cnn21
3. C[C@H]1CN(c2ccc(C(F)(F)F)cc2)C(=O)c2c(C(=O)Nc3cccnc3)cnn21
4. C[C@H]1CN(c2ccc(OC(F)(F)F)c(Cl)c2)C(=O)c2c(C(=O)Nc3cccnc3)cnn21

1. 1.01
2. 0.32
3. 0.2
4. 0.08

---

EXPERIMENTAL TARGET: human mGlu2 receptor (Homo sapiens)
Sequence (Q14416 19-872): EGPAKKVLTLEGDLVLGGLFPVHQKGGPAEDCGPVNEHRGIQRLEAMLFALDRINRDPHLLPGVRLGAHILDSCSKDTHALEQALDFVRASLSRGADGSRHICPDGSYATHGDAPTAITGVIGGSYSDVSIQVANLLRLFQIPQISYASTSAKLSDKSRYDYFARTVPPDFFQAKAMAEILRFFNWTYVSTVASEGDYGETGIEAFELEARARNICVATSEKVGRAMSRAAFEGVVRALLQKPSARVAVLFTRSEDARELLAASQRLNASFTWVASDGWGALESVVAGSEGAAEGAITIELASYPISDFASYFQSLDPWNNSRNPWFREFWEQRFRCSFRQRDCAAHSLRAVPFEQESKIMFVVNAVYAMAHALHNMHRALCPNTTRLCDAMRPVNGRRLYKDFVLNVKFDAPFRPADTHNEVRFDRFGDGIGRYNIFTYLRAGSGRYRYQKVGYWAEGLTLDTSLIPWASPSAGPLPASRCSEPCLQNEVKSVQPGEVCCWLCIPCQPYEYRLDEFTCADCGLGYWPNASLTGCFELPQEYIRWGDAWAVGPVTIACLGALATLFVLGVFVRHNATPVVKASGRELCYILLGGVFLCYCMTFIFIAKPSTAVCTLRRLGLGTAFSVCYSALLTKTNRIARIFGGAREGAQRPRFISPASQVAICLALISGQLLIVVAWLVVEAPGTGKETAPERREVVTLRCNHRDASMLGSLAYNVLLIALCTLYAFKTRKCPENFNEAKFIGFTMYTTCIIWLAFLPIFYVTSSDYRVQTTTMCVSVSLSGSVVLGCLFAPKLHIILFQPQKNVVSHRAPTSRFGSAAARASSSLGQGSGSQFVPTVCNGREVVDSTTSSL
METHOD SUMMARY: [35S]GTPγS binding assay, mGluR2 negative allosteric modulation (membranes from CHO cells transfected with human mGlu2 receptor, glutamate ~EC80 60 μM);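 further: membranes preincubated 30 min at 30 °C with compound plus glutamate, then [35S]GTPγS (0.1 nM) incorporation measured over another 30 min at 30 °C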
MEASUREMENT SETUP: read-out: GTPγS - hmGluR2 anGT Emax, relative maximal effect: maximal % inhibition relative to the control glutamate response
MEASURED ENDPOINT: Emax (%)
Give bare numbers, in %.

Some solved entries appear below for comparison.
# CHEMICAL SMILES, Emax, %
records = [
    ("Cc1cncc(NC(=O)c2cnn3c2C(=O)N(c2ccc(C(F)(F)F)c(F)c2)C[C@@H]3C)c1", 109),
    ("COc1nc(N2C[C@H](C)n3ncc(C(=O)Nc4ccccc4)c3C2=O)ccc1Cl", 111),
    ("C[C@H]1CN(c2ccc(Cl)cc2)C(=O)c2c(C(=O)Nc3cccnc3)cnn21", 106),
    ("Cc1cncc(NC(=O)c2cnn3c2C(=O)N(c2ccc(C(F)(F)F)c(C)c2)C[C@@H]3C)c1", 108),
    ("Cc1cc(C(=O)NC(=O)c2cnn3c2C(=O)N(c2ccc(C(F)(F)F)cc2)C[C@@H]3C)ccn1", 111),
    ("C[C@H]1CN(c2ccc(C(F)(F)F)cc2)C(=O)c2c(C(=O)NCc3ccccc3)cnn21", 104),
]

Would you mind giving Emax for every molecule in the list below?
1. Cc1cc(NC(=O)c2cnn3c2C(=O)N(c2ccc(C(F)(F)F)c(Cl)c2)C[C@@H]3C)cc(C)n1
2. C[C@H]1CN(c2ccc(C(F)(F)F)cc2)C(=O)c2c(C(=O)Nc3ccc(F)nc3)cnn21
3. COc1cc(N2C[C@H](C)n3ncc(C(=O)Nc4cnccn4)c3C2=O)ccc1C(F)(F)F
4. Cc1cc(NC(=O)c2cnn3c2C(=O)N(c2ccc(C(F)(F)F)c(CF)c2)C[C@@H]3C)ccn1
5. COc1cc(N2C[C@H](C)n3ncc(C(=O)Nc4cncc(C)c4)c3C2=O)ccc1C(F)(F)F
6. Cc1cc(CNC(=O)c2cnn3c2C(=O)N(c2ccc(C(F)(F)F)cc2)C[C@@H]3C)ccn1
7. Cc1cc(NC(=O)c2cnn3c2C(=O)N(c2ccc(C(F)(F)F)c(C#N)c2)C[C@@H]3C)ccn1
8. COc1cccc(NC(=O)c2cnn3c2C(=O)N(c2ccc(C(F)(F)F)c(OC)n2)C[C@@H]3C)c1

1. 107
2. 101
3. 108
4. 118
5. 111
6. 99
7. 103
8. 111

Entry `Cc1ncc(NC(=O)c2cnn3c2C(=O)N(c2ccc(C(F)(F)F)cc2)C[C@@H]3C)cn1` , system human mGlu2 receptor (Homo sapiens): what Emax was measured?
100
